Values were extracted from PubChem BioAssay AID504419.

TARGET_OR_TEST_SYSTEM: NS3h 1b (con1)
TEST_DETAILS: NS3 helicase inhibitors across HCV genotypes, late-stage follow-up, selectivity assay for HCV NS3 helicase inhibitor project, biochemical, real-time fluorescence, genotypes 2a and 1b, Set 2 (AID 504419)
COND: Recombinant NS3 helicase, real-time fluorescence unwinding
Activity calls are given as the source filed them. No rule for the calls is given here.
Choose the fitting class; nothing outside y (active), n (inactive) is accepted.

Check out these entries, answers already filled in.
- COMPOUND: "CCc1cc2c(=O)n(Cc3ccco3)c(SCc3c(C)noc3C)nc2s1"
  LABEL: "n"
- COMPOUND: "CCOc1ccc(C2C(C(=O)c3ccc(C)o3)=C(O)C(=O)N2Cc2ccco2)cc1 (stereo not given)"
  LABEL: "n"
- COMPOUND: "Cc1ccc2nc(-c3ccc4nc(-c5ccc(NC(=O)c6ccccc6)cc5)sc4c3)sc2c1S(=O)(=O)O"
  LABEL: "n"

Entry `O=c1c(O)cccc2cc(O)c(O)c(O)c12` : call = ? n

Entry `Cc1ccc2nc(-c3ccc(NC(=S)Nc4ccccc4Br)cc3)sc2c1` : call = ? n

Entry `Cc1ccc(NC(=O)C2=C(c3ccccc3)S(=O)(=O)CCS2(=O)=O)cc1` : call = ? n

Entry `CCCCOc1ccccc1C(=O)NNC(=S)NC(=O)c1ccccc1[N+](=O)[O-]` : call = ? n

Entry `O=C(NC(=S)Nc1ccc(-c2ccc(CO)o2)cc1)c1cccs1` : call = ? n

Entry `CC(=O)c1ccc(-c2cccc(-c3cc(=O)oc4ccc(C(C)(C)C)cc34)c2)cc1` : call = ? n

Entry `Cc1ccc2nc(-c3ccc4nc(-c5ccc(NC(=O)c6ccc7ccccc7c6)cc5)sc4c3)sc2c1S(=O)(=O)O` : call = ? y

====

TARGET_OR_TEST_SYSTEM: NS3h 1b (con1)
TEST_DETAILS: NS3 helicase inhibitors across HCV genotypes, late-stage follow-up, selectivity assay for HCV NS3 helicase inhibitor project, biochemical, real-time fluorescence, genotypes 2a and 1b, Set 2 (AID 504419)
COND: Recombinant NS3 helicase, real-time fluorescence unwinding
Activity calls are given as the source filed them. The rule behind the calls is not given here.
Choose the fitting class; nothing outside label 1 = active, label 0 = inactive is accepted.

Check out these entries, answers already filled in.
- COMPOUND: "COc1ccc([C@H]2C[C@@H](c3ccccc3)Oc3cc(OC)c(OC)c(OC)c32)cc1"
  TARGET_OR_TEST_SYSTEM: "NS3h 1b (con1)"
  LABEL: "label 0"
- COMPOUND: "O=C1OC(c2ccc(F)cc2)=C/C1=C/c1ccc([N+](=O)[O-])o1"
  TARGET_OR_TEST_SYSTEM: "NS3h 1b (con1)"
  LABEL: "label 0"
- COMPOUND: "NS(=O)(=O)c1ccc2nc(NC(=O)c3ccc4ncsc4c3)sc2c1"
  TARGET_OR_TEST_SYSTEM: "NS3h 1b (con1)"
  LABEL: "label 0"
- COMPOUND: "NS(=O)(=O)c1ccc2nc(NC(=O)c3ccc4ncoc4c3)sc2c1"
  TARGET_OR_TEST_SYSTEM: "NS3h 1b (con1)"
  LABEL: "label 0"
- COMPOUND: "CC1CCCCC1NC(=O)COC(=O)c1c2c(nc3ccccc13)/C(=C/c1ccco1)CC2 (configuration not stated)"
  TARGET_OR_TEST_SYSTEM: "NS3h 1b (con1)"
  LABEL: "label 0"
- COMPOUND: "COc1cc2oc(=O)cc(-c3ccc(-c4ccc(CO)cc4)cc3)c2c(OC)c1OC"
  TARGET_OR_TEST_SYSTEM: "NS3h 1b (con1)"
  LABEL: "label 0"

Entry CCOc1ccc(N2C(=O)C3Sc4[nH]c(=O)sc4C(/C=C/c4ccccc4)C3C2=O)cc1 (configuration not stated) : call = ? label 0

Entry `O=c1c2c(-c3ccco3)csc2nc(SCc2cn3ncccc3n2)n1-c1ccccc1` : call = ? label 0

Entry `C=C1c2cccc(O)c2C(O)=C2C(=O)[C@]3(O)C(O)=C(C(N)=O)C(=O)[C@@H](N(C)C)[C@@H]3[C@@H](O)[C@H]12` : call = ? label 0

Entry `COC(=O)c1ccc(C(=O)Nc2ccc(-c3nc4ccc(-c5nc6ccc(C)c(S(=O)(=O)O)c6s5)cc4s3)cc2)cc1` : call = ? label 1

Entry `Cc1ccc2nc(-c3ccc4nc(-c5ccc(NC(=O)c6ccc(C(C)(C)C)cc6)cc5)sc4c3)sc2c1S(=O)(=O)O` : call = ? label 0

Entry `Cc1ccc2nc(-c3ccc4nc(NC(=O)c5ccc6ncoc6c5)sc4c3)sc2c1` : call = ? label 0

====

TARGET_OR_TEST_SYSTEM: NS3h 2a (JFH1)
TEST_DETAILS: NS3 helicase inhibitors across HCV genotypes, late-stage follow-up, selectivity assay for HCV NS3 helicase inhibitor project, biochemical, real-time fluorescence, genotypes 2a and 1b, Set 2 (AID 504419)
COND: Recombinant NS3 helicase, real-time fluorescence unwinding
Calls of active or inactive are those of the source. The rule behind the calls is not given here.
Choose the fitting class; nothing outside active, inactive is accepted.

Check out these entries, answers already filled in.
- COMPOUND_STRUCTURE_STRING: "COc1ccc([C@H]2C[C@@H](c3ccccc3)Oc3cc(OC)c(OC)c(OC)c32)cc1"
  LABEL: "inactive"
- COMPOUND_STRUCTURE_STRING: "COc1cc(OC)c2c(-c3ccccc3)cc(=O)oc2c1[C@H](CCN1CCN(c2ccccc2)CC1)c1ccc(N(C)C)cc1"
  LABEL: "inactive"
- COMPOUND_STRUCTURE_STRING: "Cc1ccc2nc(-c3ccc4nc(-c5ccc(N)cc5)sc4c3)sc2c1S(=O)(=O)O"
  LABEL: "inactive"

Kindly review the next compound as well.
Entry `Cc1ccc2nc(-c3ccc4nc(-c5ccc(NC(=O)c6ccc(C(F)(F)F)cc6)cc5)sc4c3)sc2c1S(=O)(=O)O` : call = ? active

====

TARGET_OR_TEST_SYSTEM: NS3h 1b (con1)
TEST_DETAILS: NS3 helicase inhibitors across HCV genotypes, late-stage follow-up, selectivity assay for HCV NS3 helicase inhibitor project, biochemical, real-time fluorescence, genotypes 2a and 1b, Set 2 (AID 504419)
COND: Recombinant NS3 helicase, real-time fluorescence unwinding
Activity calls are given as the source filed them. How the calls were made is not given here.
Choose the fitting class; nothing outside label 1 (active), label 0 (inactive) is accepted.

- COMPOUND: "Cc1ccc2nc(-c3ccc4nc(-c5ccc(NC(=O)c6ccc7nc(-c8ccc(N)cc8)sc7c6)cc5)sc4c3)sc2c1S(=O)(=O)O"
  LABEL: "label 1"
- COMPOUND: "CN(C)S(=O)(=O)c1cccc(NC(=S)N/N=C/c2cc(Br)ccc2O)c1"
  LABEL: "label 0"

Entry `COc1ccc(C(=O)Nc2ccc(-c3nc4ccc(-c5nc6ccc(C)c(S(=O)(=O)O)c6s5)cc4s3)cc2)cc1` : call = ? label 1

Entry `COc1cc(OC)c2c(-c3ccccc3)cc(=O)oc2c1[C@H](CCN1CCN(c2ccccc2)CC1)c1ccc(N(C)C)cc1` : call = ? label 0

====

TARGET_OR_TEST_SYSTEM: NS3h 2a (JFH1)
TEST_DETAILS: NS3 helicase inhibitors across HCV genotypes, late-stage follow-up, selectivity assay for HCV NS3 helicase inhibitor project, biochemical, real-time fluorescence, genotypes 2a and 1b, Set 2 (AID 504419)
COND: Recombinant NS3 helicase, real-time fluorescence unwinding
Calls of active or inactive are those of the source. No rule for the calls is given here.
Choose the fitting class; nothing outside active, inactive is accepted.

Check out these entries, answers already filled in.
- COMPOUND: "CCOc1ccc(C2C(C(=O)c3ccc(C)o3)=C(O)C(=O)N2c2cc(C)on2)cc1 (centres undefined)"
  LABEL: "inactive"
- COMPOUND: "O=C(Nc1nc(-c2ccco2)c(-c2ccco2)s1)C1CCC1"
  LABEL: "inactive"
- COMPOUND: "NC(=S)N/N=C/c1ccc(C23CC4CC(CC(C4)C2)C3)cc1"
  LABEL: "inactive"
- COMPOUND: "Cc1ccc2nc(-c3ccc4nc(-c5ccc(NC(=O)c6ccccc6)cc5)sc4c3)sc2c1S(=O)(=O)O"
  LABEL: "active"
- COMPOUND: "CCOc1ccc(N2C(=O)C3Sc4[nH]c(=O)sc4C(/C=C/c4ccccc4)C3C2=O)cc1 (centres undefined)"
  LABEL: "inactive"

Entry `CNc1ccc(Br)cc(C(=O)/C=C/c2cc(OC)ccc2OC)c1=O` : call = ? inactive

Entry `CCCCOc1ccccc1C(=O)NNC(=S)NC(=O)c1ccccc1[N+](=O)[O-]` : call = ? inactive

Entry CCCCCOc1ccc(C2C(C(=O)c3ccc(C)o3)=C(OC)C(=O)N2c2cc(C)on2)cc1 (centres undefined) : call = ? inactive

Entry `CCCCCCCCCc1nc2sc3c(c2c(=O)n1NC(=O)c1ccccc1[N+](=O)[O-])CC(C)(C)OC3` : call = ? inactive

Entry COc1cc(Br)cc(C2C(C(=O)c3ccc(C)o3)=C(O)C(=O)N2c2cc(C)on2)c1OC (centres undefined) : call = ? inactive
